tested on: W2; assay: qHTS profiling for inhibitors of Plasmodium falciparum proliferation (AID 504749); note: nearly all actives have a fitted effect of over 60% in size; note: potency is the fitted concentration of half-maximal effect; settings: P. falciparum in erythrocytes, SYBR Green DNA, 72 h; series mostly up to 28.7 µM
Inconclusive results are not listed. Calls of active or inactive are those of the source. Calls come from the whole dose curve; as a rule, active = well fitted inhibition curve with a large enough effect; inconclusive = small, poorly fitted or top-dose-only effect; inactive = flat fitted curve, though single readings scatter.
Endpoint Name: Potency

[[record]]
compound = "O=C1CN(/N=C/c2ccc(-c3ccc([N+](=O)[O-])cc3)o2)C(=O)N1"
endpoint_name = "Potency"
result = "inactive"

[[record]]
compound = "O=C(O)Cc1ccc(-c2ccccc2)cc1"
endpoint_name = "Potency"
result = "inactive"

[[record]]
compound = "O=C(Nc1ccc(C(=O)O)c(O)c1)c1ccccc1"
endpoint_name = "Potency"
result = "inactive"

[[record]]
compound = "Cc1ccc(O)c(-n2nc3ccccc3n2)c1"
endpoint_name = "Potency"
result = "inactive"

[[record]]
compound = "CC(N)C(=O)OC(C)(C)Cc1ccc(Cl)cc1 (configuration not stated)"
endpoint_name = "Potency"
result = "4.26 µM (active)"

[[record]]
compound = "COc1cc(/C=C/C(=O)N2CCN(CC(=O)N3CCCC3)CC2)cc(OC)c1OC"
endpoint_name = "Potency"
result = "inactive"

[[record]]
compound = "COc1cc(CNC(=O)CCCC/C=C/C(C)C)ccc1O"
endpoint_name = "Potency"
result = "inactive"

[[record]]
compound = "Cc1ccccc1CNc1ncnc2c1ncn2C1OC(CO)C(O)C1O (configuration not stated)"
endpoint_name = "Potency"
result = "inactive"

[[record]]
compound = "CN1[C@@H](CC(=O)c2ccccc2)CCC[C@H]1C[C@H](O)c1ccccc1"
endpoint_name = "Potency"
result = "5.36 µM (active)"

[[record]]
compound = "CCCCCCOc1ccccc1C(N)=O"
endpoint_name = "Potency"
result = "inactive"

[[record]]
compound = "C=CCN1C(=O)C(CC(C)C)NC1=S (configuration not stated)"
endpoint_name = "Potency"
result = "inactive"

[[record]]
compound = "N=c1ccn2c(n1)O[C@H]1[C@H](O)[C@@H](CO)O[C@H]12"
endpoint_name = "Potency"
result = "inactive"

